# Target under test: Gamma-secretase (Homo sapiens) (UniProt Q96BI3+Q9NZ42+Q8WW43+P49768+Q92542+P49810)
# Assay: Inhibition of gamma-secretase (unknown origin) expressed in N2a NL/N cells coexpressing betaAPPNL and NotchdeltaE assessed as Abeta40 secretion at 100 nM by ELISA
# Type: cell-based
The source made the active and inactive calls. The calls are words filed in the database; no cut-off is given here.
Give one outcome, nothing more. List: True for active, False for inactive

Check out these entries, answers already filled in.
Smi | Target under test | Assigned label
CC(=O)N[C@H]1CCC[C@@H]1C(=O)N[C@H]1CCC[C@@H]1C(=O)N[C@H]1CCC[C@@H]1C(=O)N[C@H]1CCC[C@@H]1C(=O)N[C@H]1CCC[C@@H]1C(=O)N[C@H]1CCC[C@@H]1C(=O)N[C@H]1CCC[C@@H]1C(=O)N[C@H]1CCC[C@@H]1C(=O)N[C@H](CC(=O)N[C@H]1CCC[C@@H]1C(=O)N[C@H]1CCC[C@@H]1C(=O)N[C@H]1CCC[C@@H]1C(N)=O)Cc1ccc(O)cc1 | Gamma-secretase (Homo sapiens) (UniProt Q96BI3+Q9NZ42+Q8WW43+P49768+Q92542+P49810) | False
CC(=O)N[C@H]1CCC[C@@H]1C(=O)N[C@H]1CCC[C@@H]1C(=O)N[C@H]1CCC[C@@H]1C(=O)N[C@H]1CCC[C@@H]1C(=O)N[C@H]1CCC[C@@H]1C(=O)N[C@H]1CCC[C@@H]1C(=O)N[C@H]1CCC[C@@H]1C(=O)N[C@H]1CCC[C@@H]1C(=O)N[C@@H](CC(N)=O)CC(=O)N[C@H]1CCC[C@@H]1C(=O)N[C@H]1CCC[C@@H]1C(=O)N[C@H]1CCC[C@@H]1C(N)=O | Gamma-secretase (Homo sapiens) (UniProt Q96BI3+Q9NZ42+Q8WW43+P49768+Q92542+P49810) | False
CC(=O)N[C@H]1CCC[C@@H]1C(=O)N[C@H]1CCC[C@@H]1C(=O)N[C@H]1CCC[C@@H]1C(=O)N[C@H]1CCC[C@@H]1C(=O)N[C@H]1CCC[C@@H]1C(=O)N[C@@H](CCC(N)=O)CC(=O)N[C@H]1CCC[C@@H]1C(=O)N[C@H]1CCC[C@@H]1C(=O)N[C@H]1CCC[C@@H]1C(=O)N[C@H]1CCC[C@@H]1C(=O)N[C@H]1CCC[C@@H]1C(=O)N[C@H]1CCC[C@@H]1C(N)=O | Gamma-secretase (Homo sapiens) (UniProt Q96BI3+Q9NZ42+Q8WW43+P49768+Q92542+P49810) | False

Dear colleague, could you share the recorded outcome for CC(=O)N[C@H]1CCC[C@@H]1C(=O)N[C@H]1CCC[C@@H]1C(=O)N[C@H]1CCC[C@@H]1C(=O)N[C@H]1CCC[C@@H]1C(=O)N[C@H]1CCC[C@@H]1C(=O)N[C@H]1CCC[C@@H]1C(=O)N[C@H]1CCC[C@@H]1C(=O)N[C@H]1CCC[C@@H]1C(=O)N[C@@H](CC(=O)N[C@H]1CCC[C@@H]1C(=O)N[C@H]1CCC[C@@H]1C(=O)N[C@H]1CCC[C@@H]1C(N)=O)[C@@H](C)O when you have a moment? False

What about this compound? CC(=O)N[C@H]1CCC[C@@H]1C(=O)N[C@H]1CCC[C@@H]1C(=O)N[C@@H](CS)CC(=O)N[C@H]1CCC[C@@H]1C(=O)N[C@H]1CCC[C@@H]1C(=O)N[C@H]1CCC[C@@H]1C(=O)N[C@H]1CCC[C@@H]1C(=O)N[C@H]1CCC[C@@H]1C(=O)N[C@H]1CCC[C@@H]1C(=O)N[C@H]1CCC[C@@H]1C(=O)N[C@H]1CCC[C@@H]1C(=O)N[C@H]1CCC[C@@H]1C(N)=O True

What about this compound? CC(=O)N[C@H]1CCC[C@@H]1C(=O)N[C@H]1CCC[C@@H]1C(=O)N[C@H]1CCC[C@@H]1C(=O)N[C@H]1CCC[C@@H]1C(=O)N[C@H]1CCC[C@@H]1C(=O)N[C@H](CC(=O)N[C@H]1CCC[C@@H]1C(=O)N[C@H]1CCC[C@@H]1C(=O)N[C@H]1CCC[C@@H]1C(=O)N[C@H]1CCC[C@@H]1C(=O)N[C@H]1CCC[C@@H]1C(=O)N[C@H]1CCC[C@@H]1C(N)=O)Cc1ccc(O)cc1 False

* * *

# Target under test: Gamma-secretase (Homo sapiens) (UniProt Q96BI3+Q9NZ42+Q8WW43+P49768+Q92542+P49810)
# Assay: Inhibition of gamma-secretase (unknown origin) expressed in N2a NL/N cells coexpressing betaAPPNL and NotchdeltaE assessed as Abeta40 secretion at 100 nM by ELISA
# Type: cell-based
The source made the active and inactive calls. The calls are words filed in the database; no cut-off is given here.
Test readout: inhibition

Smi | inhibition
CC(=O)N[C@H]1CCC[C@@H]1C(=O)N[C@H]1CCC[C@@H]1C(=O)N[C@H]1CCC[C@@H]1C(=O)N[C@H]1CCC[C@@H]1C(=O)N[C@H]1CCC[C@@H]1C(=O)N[C@@H](CCC(=O)O)CC(=O)N[C@H]1CCC[C@@H]1C(=O)N[C@H]1CCC[C@@H]1C(=O)N[C@H]1CCC[C@@H]1C(=O)N[C@H]1CCC[C@@H]1C(=O)N[C@H]1CCC[C@@H]1C(=O)N[C@H]1CCC[C@@H]1C(N)=O | inactive
CC(=O)N[C@H]1CCC[C@@H]1C(=O)N[C@H]1CCC[C@@H]1C(=O)N[C@@H](CCCCN)CC(=O)N[C@H]1CCC[C@@H]1C(=O)N[C@H]1CCC[C@@H]1C(=O)N[C@H]1CCC[C@@H]1C(=O)N[C@H]1CCC[C@@H]1C(=O)N[C@H]1CCC[C@@H]1C(=O)N[C@H]1CCC[C@@H]1C(=O)N[C@H]1CCC[C@@H]1C(=O)N[C@H]1CCC[C@@H]1C(=O)N[C@H]1CCC[C@@H]1C(N)=O | Active
CC(=O)N[C@H]1CCC[C@@H]1C(=O)N[C@H]1CCC[C@@H]1C(=O)N[C@@H](CC(=O)N[C@H]1CCC[C@@H]1C(=O)N[C@H]1CCC[C@@H]1C(=O)N[C@H]1CCC[C@@H]1C(=O)N[C@H]1CCC[C@@H]1C(=O)N[C@H]1CCC[C@@H]1C(=O)N[C@H]1CCC[C@@H]1C(=O)N[C@H]1CCC[C@@H]1C(=O)N[C@H]1CCC[C@@H]1C(=O)N[C@H]1CCC[C@@H]1C(N)=O)[C@@H](C)O | inactive
CC(=O)N[C@H]1CCC[C@@H]1C(=O)N[C@H]1CCC[C@@H]1C(=O)N[C@H]1CCC[C@@H]1C(=O)N[C@H]1CCC[C@@H]1C(=O)N[C@H]1CCC[C@@H]1C(=O)N[C@H]1CCC[C@@H]1C(=O)N[C@H]1CCC[C@@H]1C(=O)N[C@H]1CCC[C@@H]1C(=O)N[C@H](CC(=O)N[C@H]1CCC[C@@H]1C(=O)N[C@H]1CCC[C@@H]1C(=O)N[C@H]1CCC[C@@H]1C(N)=O)CC(C)C | inactive
CC(=O)N[C@H]1CCC[C@@H]1C(=O)N[C@H]1CCC[C@@H]1C(=O)N[C@H](CC(=O)N[C@H]1CCC[C@@H]1C(=O)N[C@H]1CCC[C@@H]1C(=O)N[C@H]1CCC[C@@H]1C(=O)N[C@H]1CCC[C@@H]1C(=O)N[C@H]1CCC[C@@H]1C(=O)N[C@H]1CCC[C@@H]1C(=O)N[C@H]1CCC[C@@H]1C(=O)N[C@H]1CCC[C@@H]1C(=O)N[C@H]1CCC[C@@H]1C(N)=O)Cc1ccc(O)cc1 | inactive

Now for another entry.
Which inhibition reading was recorded for the molecule CC(=O)N[C@H]1CCC[C@@H]1C(=O)N[C@H]1CCC[C@@H]1C(=O)N[C@H]1CCC[C@@H]1C(=O)N[C@H]1CCC[C@@H]1C(=O)N[C@H]1CCC[C@@H]1C(=O)N[C@H]1CCC[C@@H]1C(=O)N[C@H]1CCC[C@@H]1C(=O)N[C@H]1CCC[C@@H]1C(=O)N[C@@H](CCC(N)=O)CC(=O)N[C@H]1CCC[C@@H]1C(=O)N[C@H]1CCC[C@@H]1C(=O)N[C@H]1CCC[C@@H]1C(N)=O ? inactive

* * *

# Target under test: Gamma-secretase
# Assay: Inhibition of gamma-secretase (unknown origin) expressed in N2a NL/N cells coexpressing betaAPPNL and NotchdeltaE assessed as Abeta42 secretion by ELISA
# Format: cell-based, Homo sapiens
Test readout: IC50 (nM)
# output: bare number, implied unit nM

Compound | Target under test | IC50 / nM
CC(=O)N[C@H]1CCC[C@@H]1C(=O)N[C@H]1CCC[C@@H]1C(=O)NCCC(=O)N[C@H]1CCC[C@@H]1C(=O)N[C@H]1CCC[C@@H]1C(=O)N[C@H]1CCC[C@@H]1C(=O)N[C@H]1CCC[C@@H]1C(=O)N[C@H]1CCC[C@@H]1C(=O)N[C@H]1CCC[C@@H]1C(=O)N[C@H]1CCC[C@@H]1C(=O)N[C@H]1CCC[C@@H]1C(=O)N[C@H]1CCC[C@@H]1C(N)=O | Gamma-secretase | 7.47
CC(=O)N[C@H]1CCC[C@@H]1C(=O)N[C@H]1CCC[C@@H]1C(=O)N[C@H]1CCC[C@@H]1C(=O)N[C@H]1CCC[C@@H]1C(=O)N[C@H]1CCC[C@@H]1C(=O)N[C@H]1CCC[C@@H]1C(=O)N[C@H]1CCC[C@@H]1C(=O)N[C@H]1CCC[C@@H]1C(=O)N[C@H]1CCC[C@@H]1C(=O)N[C@H]1CCC[C@@H]1C(=O)N[C@H]1CCC[C@@H]1C(=O)N[C@H]1CCC[C@@H]1C(N)=O | Gamma-secretase | 9.93
O=S(=O)(N[C@H](CO)C(C(F)(F)F)C(F)(F)F)c1ccc(Cl)s1 [BEGACESTAT] | Gamma-secretase | 414

Now for another entry.
Which IC50 reading was recorded for the compound CC(=O)N[C@H]1CCC[C@@H]1C(=O)N[C@H]1CCC[C@@H]1C(=O)N[C@H]1CCC[C@@H]1C(=O)N[C@H]1CCC[C@@H]1C(=O)N[C@H]1CCC[C@@H]1C(=O)N[C@H]1CCC[C@@H]1C(=O)N[C@H]1CCC[C@@H]1C(=O)N[C@H]1CCC[C@@H]1C(=O)N[C@H]1CCC[C@@H]1C(=O)N[C@H]1CCC[C@@H]1C(=O)N[C@H]1CCC[C@@H]1C(N)=O ? 225

The reported measurements were obtained from ChEMBL document CHEMBL2331477.
